Listed compounds paired with reported CC50 at 48 h
# MEASUREMENT_NOTES: In vitro cytotoxicity, MTT method
# SETTINGS: mouse, J774.2 macrophage cells, CC50 (µM), macrophage cell line J774.2, 48 h, MTT; means of three experiments
Numeric only. Scale: µM

>  <SMILES>
CC(=O)Nc1ccc(OS(=O)(=O)c2ccc3c4c(cccc24)C(=O)N3)c2ccccc12

>  <CC50 at 48 h (µM)>
126

$$$$

// switching to the query compound
## Task Identify the reported CC50 at 48 h for the following entry. "O=C(Nc1ccc2c(O)c(/N=N/c3ccc(/N=N/c4ccc(S(=O)(=O)[O-])cc4)cc3)c(S(=O)(=O)[O-])cc2c1)c1ccccc1.[Na+].[Na+]"
## Result 94.5

###

# MEASURED_ON: SARS-CoV-2 spike RBD to human ACE2 (Severe acute respiratory syndrome coronavirus 2, UniProt P0DTC2)
# MEASUREMENT_NOTES: biochemical
# Type: binding, SARS-CoV-2 / human
# SETTINGS: IC50 (µM)
REPORTED_PROPERTY: IC50 (µM)
Numeric only. Scale: µM

>  <SMILES>
CCN(Cc1cccc(S(=O)(=O)O)c1)c1ccc(C(=C2C=CC(=[N+](CC)Cc3cccc(S(=O)(=O)O)c3)C=C2)c2ccccc2)cc1

>  <ASSAY_RESULT>
2.14

$$$$

## Task Identify the reported IC50 for the following entry. "O=C(Nc1ccc2c(O)cc(S(=O)(=O)O)cc2c1)Nc1ccc2c(O)cc(S(=O)(=O)O)cc2c1"
## Result 8.84

## Task Identify the reported IC50 for the following entry. "CC(=O)Nc1ccc(OS(=O)(=O)c2ccc3c4c(cccc24)C(=O)N3)c2ccccc12"
## Result 13.7

## Task Identify the reported IC50 for the following entry. "CCOc1ccc(NS(=O)(=O)c2ccc(NC(=O)c3ccc(-c4ccccc4)cc3)cc2)cc1"
## Result 24.6

## Task Identify the reported IC50 for the following entry. "O=C(Nc1ccc2c(O)c(/N=N/c3ccc(/N=N/c4ccc(S(=O)(=O)[O-])cc4)cc3)c(S(=O)(=O)[O-])cc2c1)c1ccccc1.[Na+].[Na+]"
## Result 13

###

Listed compounds paired with reported inhibition at 50 µM
# MEASURED_ON: SARS-CoV-2 spike RBD to human ACE2 (Severe acute respiratory syndrome coronavirus 2)
# MEASUREMENT_NOTES: biochemical
# Assay type: binding, SARS-CoV-2 / human
Numeric only. Scale: %

>  <SMILES>
CCN(Cc1cccc(S(=O)(=O)O)c1)c1ccc(C(=C2C=CC(=[N+](CC)Cc3cccc(S(=O)(=O)O)c3)C=C2)c2ccccc2)cc1

>  <inhibition at 50 µM / %>
99.7

$$$$

## Task Identify the reported inhibition at 50 µM for the following entry. "CCOc1ccc(NS(=O)(=O)c2ccc(NC(=O)c3ccc(-c4ccccc4)cc3)cc2)cc1"
## Result 76.4

## Task Identify the reported inhibition at 50 µM for the following entry. "O=C(Nc1ccc2c(O)cc(S(=O)(=O)O)cc2c1)Nc1ccc2c(O)cc(S(=O)(=O)O)cc2c1"
## Result 90.8

## Task Identify the reported inhibition at 50 µM for the following entry. "CC(=O)Nc1ccc(OS(=O)(=O)c2ccc3c4c(cccc24)C(=O)N3)c2ccccc12"
## Result 69.9

## Task Identify the reported inhibition at 50 µM for the following entry. "O=C(Nc1ccc2c(O)c(/N=N/c3ccc(/N=N/c4ccc(S(=O)(=O)[O-])cc4)cc3)c(S(=O)(=O)[O-])cc2c1)c1ccccc1.[Na+].[Na+]"
## Result 90.6

Where do these numbers come from? They come from paper PMC11124852.
